- experiment-summary: Assay 1: IV/PO pharmacokinetic study in monkeys
- Format: in vivo, male cynomolgus monkeys
- settings: male, cynomolgus monkey, plasma, PO, 2 mg/kg, read-out: AUClast Mean
test-readout: AUC(0-t)

Name the reported AUC(0-t) value associated with the compound CCOC[C@](C)(C[C@@H](Cc1ccc(-c2cc(Cl)ccc2F)cc1)NC(=O)c1cc(O)no1)C(=O)O [Compound I] 1910 ng·h/mL

====

- experiment-summary: Assay 1: IV/PO pharmacokinetic study in monkeys
- Type: in vivo, male cynomolgus monkeys
- settings: male, cynomolgus monkey, plasma, IV, 1 mg/kg, read-out: AUClast Mean
test-readout: AUC(0-t) (ng·h/mL)
Respond numerically; units are ng·h/mL and should not be typed.

So what's the measured AUC(0-t) for this one? CCOC[C@](C)(C[C@@H](Cc1ccc(-c2cc(Cl)ccc2F)cc1)NC(=O)c1cc(O)no1)C(=O)O 2290
